List of thermal shift delta Tm values.
- Test system: LOC_OS01G21960-cb002;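 note: purified Escherichia coli-expressed rice kinase domain construct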
- PROTOCOL: thermal shift delta Tm vs DMSO control; higher = stronger stabilization (binding)
- REPORTED_CONDITIONS: 12.5 µM; protein concentration 2 µM
Where a name gives a salt, the structure may show the parent alone.

{"COMPOUND": "CCNC(=O)Nc1ccc(-c2nc3c(c(N4CCOC[C@@H]4C)n2)CCN(C2COC2)C3)cc1", "UNITS_SYMBOL": "°C", "thermal shift delta Tm": 0.43}
{"COMPOUND": "FC(F)c1nc2ccccc2n1-c1nc(N2CCOCC2)nc(N2CCOCC2)n1", "UNITS_SYMBOL": "°C", "thermal shift delta Tm": 0.23}
{"COMPOUND": "CNC(=O)c1cc(COc2nnc(Nc3ccc(Cl)cc3)c3ccoc23)ccn1 [Telatinib]", "UNITS_SYMBOL": "°C", "thermal shift delta Tm": 0.85}
{"COMPOUND": "O=C(NC[C@H](O)CO)c1ccncc1Nc1ccc(I)cc1F", "UNITS_SYMBOL": "°C", "thermal shift delta Tm": 0.66}
{"COMPOUND": "COc1cc(Nc2ncc(F)c(Nc3ccc4c(n3)N(COP(=O)(O)O)C(=O)C(C)(C)O4)n2)cc(OC)c1OC [Fostamatinib (R788)]", "UNITS_SYMBOL": "°C", "thermal shift delta Tm": 3.63}
{"COMPOUND": "Nc1ccc(C(=O)Nc2cccc(-c3nc(N4CCOCC4)c4oc5ncccc5c4n3)c2)cn1", "UNITS_SYMBOL": "°C", "thermal shift delta Tm": 0.56}
{"COMPOUND": "CNC(=O)c1cc(Oc2ccc(NC(=O)Nc3ccc(Cl)c(C(F)(F)F)c3)cc2)ccn1 [Sorafenib Tosylate]", "UNITS_SYMBOL": "°C", "thermal shift delta Tm": 2.13}
{"COMPOUND": "COc1ccc(F)c(F)c1C(=O)c1cnc(NC2CCN(S(C)(=O)=O)CC2)nc1N", "UNITS_SYMBOL": "°C", "thermal shift delta Tm": 0.93}
{"COMPOUND": "CC(C)(C)NS(=O)(=O)c1cncc(-c2cc(F)c3nc(N)nn3c2)c1", "UNITS_SYMBOL": "°C", "thermal shift delta Tm": 0.56}
{"COMPOUND": "Cc1c(Cn2c(C)nc3c(C(=O)O)cc(N4CCOCC4)cc32)cccc1C(F)(F)F", "UNITS_SYMBOL": "°C", "thermal shift delta Tm": 0.56}
{"COMPOUND": "CC1(C)OCCn2c1nc1c(N3CCOCC3)nc(-c3cnc(N)nc3)nc12", "UNITS_SYMBOL": "°C", "thermal shift delta Tm": 1.06}
{"COMPOUND": "CC1=C(C(=O)Nc2cc3cn[nH]c3cc2F)C(c2ccc(C(F)(F)F)cc2)CC(=O)N1 (stereo not drawn)", "UNITS_SYMBOL": "°C", "thermal shift delta Tm": 0.33}
{"COMPOUND": "COc1nccnc1NS(=O)(=O)c1ccc(NC(=O)/C=C/c2ccc([N+](=O)[O-])s2)cc1 [Necrosulfonamide]", "UNITS_SYMBOL": "°C", "thermal shift delta Tm": 0.24}
{"COMPOUND": "CCS(=O)(=O)N1CCN(c2ccc(Nc3ncc(C(N)=O)c(NC4CC4)n3)cc2)CC1", "UNITS_SYMBOL": "°C", "thermal shift delta Tm": 2.53}
{"COMPOUND": "c1ccc(-c2[nH]ncc2-c2ccnc3ccccc23)nc1", "UNITS_SYMBOL": "°C", "thermal shift delta Tm": 0.76}
{"COMPOUND": "COc1ccc(-c2ccc3ncc4c(c3c2)n(-c2ccc(N3CCNCC3)c(C(F)(F)F)c2)c(=O)n4C)cn1", "UNITS_SYMBOL": "°C", "thermal shift delta Tm": 2.58}
{"COMPOUND": "CC#CC(=O)N1CCC[C@H]1c1nc(-c2ccc(C(=O)Nc3ccccn3)cc2)c2c(N)nccn12 [Acalabrutinib (ACP-196)]", "UNITS_SYMBOL": "°C", "thermal shift delta Tm": 0.47}
{"COMPOUND": "CCc1nc(C(N)=O)c(Nc2ccc(N3CCC(N4CCN(C)CC4)CC3)c(OC)c2)nc1NC1CCOCC1 [Gilteritinib (ASP2215)]", "UNITS_SYMBOL": "°C", "thermal shift delta Tm": 3.21}
